test: AUC (0 to t) in rat at 2.5 mg/kg, iv administered as single dose; type: ADME, organism-based; parameters: dose 2.5 mg/kg, route intravenous; conditions: plasma
reported_endpoint: AUC(0-t) (ng·h/mL)
Give the number; ng·h/mL is assumed, so skip it.

Name the reported AUC(0-t) value associated with the compound CC(C)(CO)Cn1ncn(-c2ccc(N3CCN(c4ccc(OC[C@H]5CO[C@](Cn6cncn6)(c6ccc(F)cc6F)O5)cc4)CC3)cn2)c1=O
1120

----------
test system: Aspergillus flavus; assay: Antifungal activity against Aspergillus flavus JLC 30784 by broth microdilution method; type: functional
Each record here notes measured MIC.
Give the number; µg/mL is assumed, so skip it.

Solved cases below.
>>> measured("CC(C)Cn1ncn(-c2ccc(N3CCN(c4ccc(OC[C@H]5CO[C@](Cn6cncn6)(c6ccc(F)cc6F)O5)cc4)CC3)cn2)c1=O")
0.0625
>>> measured("CC(C)Cn1ncn(-c2ccc(N3CCN(c4ccc(OC[C@H]5CO[C@](Cn6cncn6)(c6ccc(F)cc6F)O5)cc4)CC3)nc2)c1=O")
0.0625
>>> measured("CC(CO)Cn1ncn(-c2ccc(N3CCN(c4ccc(OC[C@H]5CO[C@](Cn6cncn6)(c6ccc(F)cc6F)O5)cc4)CC3)cn2)c1=O (stereo partly specified)")
0.125
>>> measured("CCC(C)n1ncn(-c2ccc(N3CCN(c4ccc(OC[C@H]5CO[C@](Cn6cncn6)(c6ccc(F)cc6F)O5)cc4)CC3)nc2)c1=O (stereo partly specified)")
0.25
>>> measured("CC(C)(CO)Cn1ncn(-c2ccc(N3CCN(c4ccc(OC[C@H]5CO[C@](Cn6cncn6)(c6ccc(F)cc6F)O5)cc4)CC3)nc2)c1=O")
0.125

Name the reported MIC value associated with the compound CC(CCO)n1ncn(-c2ccc(N3CCN(c4ccc(OC[C@H]5CO[C@](Cn6cncn6)(c6ccc(F)cc6F)O5)cc4)CC3)nc2)c1=O (stereo partly specified)
4

Name the reported MIC value associated with the compound CCC(C)n1ncn(-c2ccc(N3CCN(c4ccc(OCC5COC(Cn6cncn6)(c6ccc(Cl)cc6Cl)O5)cc4)CC3)cc2)c1=O (stereo unspecified)
0.125

Name the reported MIC value associated with the compound CC(C)n1ncn(-c2ccc(N3CCN(c4ccc(OC[C@H]5CO[C@](Cn6cncn6)(c6ccc(F)cc6F)O5)cc4)CC3)cn2)c1=O
0.125

Name the reported MIC value associated with the compound CC(CO)n1ncn(-c2ccc(N3CCN(c4ccc(OC[C@H]5CO[C@](Cn6cncn6)(c6ccc(F)cc6F)O5)cc4)CC3)nc2)c1=O (stereo partly specified)
0.25

Name the reported MIC value associated with the compound O=c1n(-c2ccc(N3CCN(c4ccc(OC[C@H]5CO[C@](Cn6cncn6)(c6ccc(F)cc6F)O5)cc4)CC3)nc2)cnn1Cc1ccccc1
0.25

----------
assay: Cmax in rat at 10 mg/kg, po administered as single dose; type: ADME, organism-based; set-up: dose 10 mg/kg, route oral; conditions: in vivo
Each record here notes measured Cmax.
Entry format: amount then unit.

>>> measured("CC(C)n1ncn(-c2ccc(N3CCN(c4ccc(OC[C@H]5CO[C@](Cn6cncn6)(c6ccc(F)cc6F)O5)cc4)CC3)cn2)c1=O")
"159 ng/mL"
>>> measured("CC(C)n1ncn(-c2ccc(N3CCN(c4ccc(OC[C@H]5CO[C@](Cn6cncn6)(c6ccc(F)cc6F)O5)cc4)CC3)nc2)c1=O")
"712 ng/mL"
>>> measured("CC(C)(CO)Cn1ncn(-c2ccc(N3CCN(c4ccc(OC[C@H]5CO[C@](Cn6cncn6)(c6ccc(F)cc6F)O5)cc4)CC3)cn2)c1=O")
"297 ng/mL"
>>> measured("CCC(C)n1ncn(-c2ccc(N3CCN(c4ccc(OCC5COC(Cn6cncn6)(c6ccc(Cl)cc6Cl)O5)cc4)CC3)cc2)c1=O (stereo not given)")
"6.28 ng/mL"

Lab note: next compound to report on.
Name the reported Cmax value associated with the compound CC(C)Cn1ncn(-c2ccc(N3CCN(c4ccc(OC[C@H]5CO[C@](Cn6cncn6)(c6ccc(F)cc6F)O5)cc4)CC3)nc2)c1=O
392 ng/mL

----------
system: Aspergillus flavus; experiment: Antifungal activity against Aspergillus flavus JLC 30784 by broth microdilution method; type: functional
reported_endpoint: MIC (µg/mL)
Give the number; µg/mL is assumed, so skip it.

Solved cases below.
>>> measured("CC(C)n1ncn(-c2ccc(N3CCN(c4ccc(OC[C@H]5CO[C@](Cn6cncn6)(c6ccc(F)cc6F)O5)cc4)CC3)nc2)c1=O")
0.125
>>> measured("O=c1n(-c2ccc(N3CCN(c4ccc(OC[C@H]5CO[C@](Cn6cncn6)(c6ccc(F)cc6F)O5)cc4)CC3)cn2)cnn1CCO")
0.03
>>> measured("CCC(C)n1ncn(-c2ccc(N3CCN(c4ccc(OC[C@H]5CO[C@](Cn6cncn6)(c6ccc(F)cc6F)O5)cc4)CC3)cn2)c1=O (some centres not stated)")
0.5
>>> measured("CC(CO)n1ncn(-c2ccc(N3CCN(c4ccc(OC[C@H]5CO[C@](Cn6cncn6)(c6ccc(F)cc6F)O5)cc4)CC3)cn2)c1=O (some centres not stated)")
0.125

Name the reported MIC value associated with the compound CCC(CC)n1ncn(-c2ccc(N3CCN(c4ccc(OC[C@H]5CO[C@](Cn6cncn6)(c6ccc(F)cc6F)O5)cc4)CC3)cn2)c1=O
0.0625

Name the reported MIC value associated with the compound O=c1n(-c2ccc(N3CCN(c4ccc(OC[C@H]5CO[C@](Cn6cncn6)(c6ccc(F)cc6F)O5)cc4)CC3)nc2)cnn1CCCO
0.25

----------
test: Half life in rat at 5 mg/kg, iv administered as single dose; format: ADME, organism-based; parameters: dose 5 mg/kg, route intravenous; details: in vivo
reported_endpoint: half-life (h)
Give the number; h is assumed, so skip it.

Name the reported half-life value associated with the compound CC(C)Cn1ncn(-c2ccc(N3CCN(c4ccc(OC[C@H]5CO[C@](Cn6cncn6)(c6ccc(F)cc6F)O5)cc4)CC3)nc2)c1=O
1.43

----------
experiment: Solubility of the compound in water at pH 1.2; assay type: physicochemical; conditions: buffer
reported_endpoint: solubility (µg/mL)
Give the number; µg/mL is assumed, so skip it.

Name the reported solubility value associated with the compound CCC(C)n1ncn(-c2ccc(N3CCN(c4ccc(OCC5COC(Cn6cncn6)(c6ccc(Cl)cc6Cl)O5)cc4)CC3)cc2)c1=O (stereo unspecified)
16

----------
test system: Candida albicans; test: Antifungal activity against Candida albicans JLC 31374 by broth microdilution method; type: functional
reported_endpoint: MIC (µg/mL)
Give the number; µg/mL is assumed, so skip it.

Solved cases below.
>>> measured("CC(C)(CO)Cn1ncn(-c2ccc(N3CCN(c4ccc(OC[C@H]5CO[C@](Cn6cncn6)(c6ccc(F)cc6F)O5)cc4)CC3)cn2)c1=O")
0.0156
>>> measured("CC(C)(CO)Cn1ncn(-c2ccc(N3CCN(c4ccc(OC[C@H]5CO[C@](Cn6cncn6)(c6ccc(F)cc6F)O5)cc4)CC3)nc2)c1=O")
0.0625
>>> measured("CC(C)n1ncn(-c2ccc(N3CCN(c4ccc(OC[C@H]5CO[C@](Cn6cncn6)(c6ccc(F)cc6F)O5)cc4)CC3)cn2)c1=O")
0.0075
>>> measured("CCC(C)n1ncn(-c2ccc(N3CCN(c4ccc(OCC5COC(Cn6cncn6)(c6ccc(Cl)cc6Cl)O5)cc4)CC3)cc2)c1=O (stereo not given) [ITRACONAZOLE]")
0.125
>>> measured("CC(C)Cn1ncn(-c2ccc(N3CCN(c4ccc(OC[C@H]5CO[C@](Cn6cncn6)(c6ccc(F)cc6F)O5)cc4)CC3)nc2)c1=O")
0.03

Lab note: next molecule to report on.
Name the reported MIC value associated with the molecule CC(C)Cn1ncn(-c2ccc(N3CCN(c4ccc(OC[C@H]5CO[C@](Cn6cncn6)(c6ccc(F)cc6F)O5)cc4)CC3)cn2)c1=O
0.015

----------
tested on: Aspergillus flavus; assay: Antifungal activity against Aspergillus flavus JLC 40437 by broth microdilution method; format: functional
reported_endpoint: MIC (µg/mL)
Give the number; µg/mL is assumed, so skip it.

>>> measured("CC(CO)n1ncn(-c2ccc(N3CCN(c4ccc(OC[C@H]5CO[C@](Cn6cncn6)(c6ccc(F)cc6F)O5)cc4)CC3)cn2)c1=O (some centres not stated)")
0.125
>>> measured("CCC(CC)n1ncn(-c2ccc(N3CCN(c4ccc(OC[C@H]5CO[C@](Cn6cncn6)(c6ccc(F)cc6F)O5)cc4)CC3)cn2)c1=O")
0.0625
>>> measured("O=c1n(-c2ccc(N3CCN(c4ccc(OC[C@H]5CO[C@](Cn6cncn6)(c6ccc(F)cc6F)O5)cc4)CC3)nc2)cnn1CCCO")
0.25
>>> measured("CCC(C)n1ncn(-c2ccc(N3CCN(c4ccc(OCC5COC(Cn6cncn6)(c6ccc(Cl)cc6Cl)O5)cc4)CC3)cc2)c1=O (configuration not stated)")
0.125
>>> measured("CCC(C)n1ncn(-c2ccc(N3CCN(c4ccc(OC[C@H]5CO[C@](Cn6cncn6)(c6ccc(F)cc6F)O5)cc4)CC3)nc2)c1=O (some centres not stated)")
0.25

Lab note: next molecule to report on.
Name the reported MIC value associated with the molecule CC(CO)n1ncn(-c2ccc(N3CCN(c4ccc(OC[C@H]5CO[C@](Cn6cncn6)(c6ccc(F)cc6F)O5)cc4)CC3)nc2)c1=O (some centres not stated)
0.25
